Hello, the source for this data is patent US20050009840A1, in case you need it.

- tgt: Met kinase domain (GST fusion protein) (Homo sapiens, UniProt P08581)
- Construct: Purified GST fusion protein containing the Met kinase domain
- Sequence (P08581 1078-1345 limits assumed): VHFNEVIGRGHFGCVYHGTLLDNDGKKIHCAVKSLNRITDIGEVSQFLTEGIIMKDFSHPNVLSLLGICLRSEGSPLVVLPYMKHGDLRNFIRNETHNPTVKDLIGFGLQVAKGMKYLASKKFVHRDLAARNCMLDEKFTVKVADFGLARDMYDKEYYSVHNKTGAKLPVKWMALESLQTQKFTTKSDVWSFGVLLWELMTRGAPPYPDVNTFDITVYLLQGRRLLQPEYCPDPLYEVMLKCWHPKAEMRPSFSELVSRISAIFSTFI
- testMethodNotes: Met transphosphorylation assay (ELISA, poly(glu-tyr) substrate);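 note: Cell-free ELISA with plate-bound poly(Glu:Tyr 4:1) phosphorylated by GST-fused Met kinase domain plus ATP and Mn2+, phosphotyrosine detected by anti-phosphotyrosine antibody with HRP and ABTS read-out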
- Format: biochemical
- recordedConditions: read-out: Met IC50
Quick reference: IC50 of the listed items.

Query: Fill in: IC50 of Nc1ncc(Br)nc1OCc1c(Cl)cccc1Cl [II(a)] is ___
Reply: > 20000 nM

Query: Quick check: IC50 of CS(=O)(=O)Nc1ccccc1-c1cnc(N)c(OCc2c(Cl)cccc2Cl)c1 [Example I-26] ?
Reply: > 20000 nM

Query: Recorded IC50 of CC(=O)N1CCN(CCS(=O)(=O)Nc2ccc(-c3cnc(N)c(OCc4c(F)ccc(F)c4Cl)n3)cc2)CC1 [II-18] , please.
Reply: 1500 nM

Query: # query: IC50 of entry Nc1ncc(-c2cccc(OC(F)(F)F)c2)cc1OCc1c(Cl)cccc1Cl [Example I-18]
Reply: > 20000 nM

Query: Could you tell me which IC50 is on file for CCN(CC)Cc1c[nH]c2ccc(-c3cnc(N)c(OCc4c(F)ccc(F)c4Cl)n3)cc12 [II-63] ?
Reply: 730 nM

Query: Name the reported IC50 value associated with the molecule CCN(CC)CCNC(=O)c1ccc(-c2cnc(N)c(OCc3c(Cl)cccc3Cl)c2)cc1 [Example I-36]
Reply: 990 nM

Query: Which IC50 value belongs to Nc1ncc(-c2ccccc2)cc1OCc1c(F)cccc1F [Example I-100] ?
Reply: 9300 nM

Query: Give the measured IC50 of CC(Oc1nc(-c2ccc(NC(=O)NCCN3CCCC3)cc2)cnc1N)c1c(F)ccc(F)c1Cl (stereo not shown) [II-184] .
Reply: 180 nM

Query: I am curious: what IC50 value has been reported for Nc1ncc(-c2ccc(OCC(=O)N3CCC[C@@H]3CN3CCCC3)cc2)cc1OCc1c(F)cccc1F [Example I-126] ?
Reply: 3580 nM

Query: For CCOC(=O)c1cc2cc(-c3cnc(N)c(OCc4c(Cl)cccc4Cl)c3)ccc2[nH]1 [Example I-76] , what is its reported IC50?
Reply: > 20000 nM

Query: Please give the measured IC50 for this molecule: CC(Oc1nc(-c2ccnc(C(=O)N3CCN(C)CC3)c2)cnc1N)c1c(Cl)ccc(F)c1Cl (stereo not shown) [II-206]
Reply: 100 nM

Query: Entry under review: CC(Oc1nc(-c2ccc(C(=O)N3CCN(C)CC3)cn2)cnc1N)c1c(Cl)ccc(F)c1Cl (stereo not shown) [II-202] . Reported IC50?
Reply: 150 nM

Query: Which IC50 value is on record for Nc1ncc(-c2ccc3[nH]cc(CN4CCCC4)c3c2)cc1OCc1c(Cl)cccc1Cl [Example I-63] ?
Reply: 1340 nM

Query: Any idea what its IC50 is? The molecule is Nc1ncc(-c2ccc3[nH]c(C(=O)O)cc3c2)cc1OCc1c(Cl)cccc1Cl [Example I-77]
Reply: 1620 nM

Query: Endpoint output: IC50 of CC(Oc1nc(-c2cccc(C(=O)NCCCN3CCOCC3)c2)cnc1N)c1c(Cl)ccc(F)c1Cl (stereo not shown) [II-135] . Value?
Reply: 260 nM

Query: Value lookup for IC50; key = Nc1ncc(-c2ccc(OCC(=O)N3CCC[C@H]3CN3CCCC3)cc2)cc1OCc1c(Cl)cccc1Cl [Example I-57]
Reply: 500 nM

Query: Given CC(=O)N1CCN(CCNC(=O)c2ccc(-c3cnc(N)c(OC(C)c4c(Cl)cccc4Cl)n3)cc2)CC1 (stereo not shown) [II-175] , state its recorded IC50.
Reply: 280 nM

Query: Any idea what its IC50 is? The molecule is CC(Oc1nc(-c2ccc(C(=O)N3CC[C@H](N)C3)cc2)cnc1N)c1c(Cl)cccc1Cl (stereo partly shown) [II-165]
Reply: 100 nM

Query: Can you look up the measured IC50 of CC(Oc1nc(-c2ccc(NC(=O)NCCN3CCOCC3)cc2)cnc1N)c1c(F)ccc(F)c1Cl (stereo not shown) [II-182] for me?
Reply: 180 nM
